# Assay Target: K-Ras G12C (Homo sapiens (Human), UniProt P01116+P62937, G12C)
# Sequence (P01116-2 other isoform, or with tags, fused parts or gaps G12C): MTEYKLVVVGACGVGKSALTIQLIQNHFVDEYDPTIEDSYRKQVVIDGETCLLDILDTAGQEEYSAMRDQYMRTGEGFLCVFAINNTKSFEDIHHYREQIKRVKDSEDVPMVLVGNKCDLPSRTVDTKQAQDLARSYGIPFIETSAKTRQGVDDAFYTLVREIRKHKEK
# Sequence (P62937 whole entry): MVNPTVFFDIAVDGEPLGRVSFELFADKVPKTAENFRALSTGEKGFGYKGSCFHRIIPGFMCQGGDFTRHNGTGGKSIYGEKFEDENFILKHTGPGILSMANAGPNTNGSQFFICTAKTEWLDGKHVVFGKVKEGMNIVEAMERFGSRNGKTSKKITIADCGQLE
# Protocol Description: Ras-Raf (BRAF RBD) disruption / FRET / MOA assay, KRAS G12C
# Format: biochemical
# Condition Context: KRAS G12C; Ras-Raf disruption/FRET/MOA assay; read-out: IC50* KRAS G12C FRET data
Measurement Type: IC50

Compound	Result Value
C=CC(=O)N1CC[C@]2(CCN(C(=O)N(C)[C@H](C(=O)N[C@H]3Cc4nc(cs4)-c4ccc5c(c4)c(c(-c4cccnc4[C@H](C)OC)n5CC)CC(C)(C)COC(=O)[C@@H]4CCCN(N4)C3=O)C(C)C)C2)C1 (atropisomer, axis not shown) [Example A719]	10 to 100 nM
C=CC(=O)N1CC[C@H](C(=O)N(C)[C@H](C(=O)NC2C[C@H]3CN(CCCO3)c3ccc4c(c3)c(c(-c3cccnc3[C@H](C)OC)n4CC)CC(C)(C)COC(=O)[C@@H]3CCCN(N3)C2=O)C(C)C)C1 (some centres unmarked) [Example A429]	> 10000 nM

====

# Assay Target: KRAS G12S (Homo sapiens (Human), UniProt P01116+P62937, G12S)
# Sequence (P01116-2 other isoform, or with tags, fused parts or gaps G12S): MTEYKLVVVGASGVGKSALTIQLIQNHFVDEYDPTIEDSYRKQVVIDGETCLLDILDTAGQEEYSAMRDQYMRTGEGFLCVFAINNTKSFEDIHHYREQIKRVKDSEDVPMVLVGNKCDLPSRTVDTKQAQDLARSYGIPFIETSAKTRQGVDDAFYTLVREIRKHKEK
# Sequence (P62937 whole entry): as the sequence (P62937 whole entry) above
# Protocol Description: Ras-Raf (BRAF RBD) disruption / FRET / MOA assay, KRAS G12S
# Assay type: biochemical
# Condition Context: Ras-Raf disruption/FRET/MOA assay; class symbols; read-out: KRAS G12S FRET data IC50

Compound	Assay Target	IC50
CCn1c(-c2cccnc2COC)c2c3cc(ccc31)-c1cc(O)cc(c1)C[C@H](NC(=O)[C@H](C(C)C)N(C)C(=O)[C@H]1CCN(C(=O)C#CCN3[C@H](C)COC[C@@H]3C)C1)C(=O)N1CCC[C@H](N1)C(=O)OCC(C)(C)C2 [Example A237]	KRAS G12S (Homo sapiens (Human), UniProt P01116+P62937, G12S)	0.1 to 1 µM
C=CC(=O)N1CC2(CCN2C(=O)N(C)[C@H](C(=O)N[C@H]2Cc3cccc(n3)-c3ccc4c(c3)c(c(-c3cccnc3[C@H](C)OC)n4CC)CC(C)(C)COC(=O)[C@@H]3CCCN(N3)C2=O)C(C)C)C1 (atropisomer, axis not shown) [Example A636]	KRAS G12S (Homo sapiens (Human), UniProt P01116+P62937, G12S)	0.1 to 1 µM
CCn1c(-c2cccnc2COC)c2c3cc(ccc31)-c1cc(O)cc(c1)C[C@H](NC(=O)[C@H](C(C)C)N(C)C(=O)[C@H]1CCN(C(=O)/C=C/CN(C)C)C1)C(=O)N1CCC[C@H](N1)C(=O)OCC(C)(C)C2 [Example A054]	KRAS G12S (Homo sapiens (Human), UniProt P01116+P62937, G12S)	0.1 to 1 µM
C=CC(=O)N1CC2(CCCN2C(=O)N(C)[C@H](C(=O)N[C@H]2Cc3nc(cs3)-c3ccc4c(c3)c(c(-c3cccnc3[C@H](C)OC)n4CC)CC(C)(C)COC(=O)[C@@H]3CCCN(N3)C2=O)C(C)C)C1 (atropisomer, axis not shown) [Example A667]	KRAS G12S (Homo sapiens (Human), UniProt P01116+P62937, G12S)	0.1 to 1 µM
CCn1c(-c2cccnc2[C@H](C)OC)c2c3cc(ccc31)-c1cccc(c1)C[C@H](NC(=O)[C@H](C(C)C)N(C)C(=O)[C@H]1CCN(S(=O)(=O)C=C(C)C)C1)C(=O)N1CCC[C@H](N1)C(=O)OCC(C)(C)C2 (atropisomer, axis not shown) [Example A307]	KRAS G12S (Homo sapiens (Human), UniProt P01116+P62937, G12S)	> 10 µM
CCn1c(-c2cccnc2COC)c2c3cc(ccc31)-c1cc(O)cc(c1)C[C@H](NC(=O)[C@H](C(C)C)N(C)C(=O)[C@H]1CCN(C(=O)C#CCCN3CCOCC3)C1)C(=O)N1CCC[C@H](N1)C(=O)OCC(C)(C)C2 [Example A129]	KRAS G12S (Homo sapiens (Human), UniProt P01116+P62937, G12S)	0.1 to 1 µM
CCn1c(-c2cccnc2[C@H](C)OC)c2c3cc(ccc31)-c1cccc(c1)C[C@H](NC(=O)[C@H](C1CCCC1)N(C)C(=O)[C@@H]1CN(C(=O)C#CC(C)(C)N(C)C)C[C@@H]1C)C(=O)N1CCC[C@H](N1)C(=O)OCC(C)(C)C2 (atropisomer, axis not shown) [Example A391]	KRAS G12S (Homo sapiens (Human), UniProt P01116+P62937, G12S)	1 to 10 µM
CCn1c(-c2ccccc2CN(C)C)c2c3cc(ccc31)-c1cc(O)cc(c1)C[C@H](NC(=O)[C@H](C(C)C)N(C)C(=O)c1ncc(NC(=O)/C=C/CN(C)C)n1C)C(=O)N1CCC[C@H](N1)C(=O)OCC(C)(C)C2 [Example A116]	KRAS G12S (Homo sapiens (Human), UniProt P01116+P62937, G12S)	> 10 µM
C=CC(=O)N1CC[C@H](C(=O)N(C)[C@H](C(=O)N[C@H]2Cc3cc(O)cc(c3)-c3ccc4c(c3)c(c(-c3cnn5c3[C@@H](OC)CCC5)n4CC)CC(C)(C)COC(=O)[C@@H]3CCCN(N3)C2=O)C(C)C)C1 [Example A333]	KRAS G12S (Homo sapiens (Human), UniProt P01116+P62937, G12S)	0.01 to 0.1 µM
C=CS(=O)(=O)N1CC[C@H](C(=O)N(C)[C@H](C(=O)N[C@H]2Cc3cc(O)cc(c3)-c3ccc4c(c3)c(c(-c3cncnc3)n4CC)CC(C)(C)COC(=O)[C@@H]3CCCN(N3)C2=O)C(C)C)C1 [Example A172]	KRAS G12S (Homo sapiens (Human), UniProt P01116+P62937, G12S)	1 to 10 µM
C=CC(=O)N1CC[C@H](C(=O)N(C)[C@H](C(=O)N[C@H]2CC3=NC=C(O3)c3ccc4c(c3)c(c(-c3cccnc3[C@H](C)OC)n4CC)CC(C)(C)COC(=O)[C@@H]3CCCN(N3)C2=O)C(C)C)C1 (atropisomer, axis not shown) [Example A278]	KRAS G12S (Homo sapiens (Human), UniProt P01116+P62937, G12S)	1 to 10 µM
C=CC(=O)N1CCC[C@]12CCN(C(=O)N(C)[C@H](C(=O)N[C@H]1Cc3nc(cs3)-c3ccc4c(c3)c(c(-c3cccnc3[C@H](C)OC)n4CC)CC(C)(C)COC(=O)[C@@H]3CCCN(N3)C1=O)C(C)C)C2 (atropisomer, axis not shown) [Example A548]	KRAS G12S (Homo sapiens (Human), UniProt P01116+P62937, G12S)	0.1 to 1 µM
C=CC(=O)N1CC[C@H](C(=O)N(C)[C@H](C(=O)N[C@H]2Cc3cc(O)cc(c3)-c3ccc4c(c3)c(c(-c3cnc(N(C)C)s3)n4CC)CC(C)(C)COC(=O)[C@@H]3CCCN(N3)C2=O)C(C)C)C1 [Example A302]	KRAS G12S (Homo sapiens (Human), UniProt P01116+P62937, G12S)	1 to 10 µM
C=CC(=O)N1CC[C@H](C(=O)N(C)[C@H](C(=O)N[C@H]2Cc3cc(O)cc(c3)-c3ccc4nc(-c5cccnc5[C@H](C)OC)n(c4c3)CC(C)(C)COC(=O)[C@@H]3CCCN(N3)C2=O)C(C)C)C1 [Example A242]	KRAS G12S (Homo sapiens (Human), UniProt P01116+P62937, G12S)	> 10 µM
C=CC(=O)N1CCC[C@H]2CN(C(=O)N(C)[C@H](C(=O)N[C@H]3Cc4nc(cs4)-c4ccc5c(c4)c(c(-c4cccnc4[C@H](C)OC)n5CC)CC(C)(C)COC(=O)[C@@H]4CCCN(N4)C3=O)C(C)C)C[C@H]21 (atropisomer, axis not shown) [Example A618]	KRAS G12S (Homo sapiens (Human), UniProt P01116+P62937, G12S)	0.1 to 1 µM
C=CC(=O)N1CC[C@H](C(=O)N(C)[C@H](C(=O)N[C@H]2Cc3cc(O)cc(c3)-c3ccc4c(c3)c(c(-c3cncnc3)n4CC)CC(C)(C)COC(=O)[C@@H]3CCCN(N3)C2=O)C(C)C)O1 [Example A180]	KRAS G12S (Homo sapiens (Human), UniProt P01116+P62937, G12S)	1 to 10 µM

The reported numbers originate from patent US11566007B2.
